# Assay method text: Dissociation constant, pKa of the compound
# Format: physicochemical
Experimental readout: pKa

In [3]: df
Out[3]:
        smiles_str  experimental_readout  number
0  NC12CCC(CC1)CC2                   pKa      11
1   NC12CCC(CC1)C2                   pKa      11
2     NC12CC(C1)C2                   pKa      11

====

# Test system: Hepatitis C virus
# Assay method text: Antiviral activity against HCV GT5a-genotype assessed as inhibition of viral replication
# Format: functional, organism-based, Hepacivirus hominis
pEC50: −log10 of the molar value.

Smiles str	pEC50
COC(=O)N[C@H](C(=O)N1CCC[C@H]1c1nc2cc(-c3csc4c(-c5ccc(-c6c[nH]c([C@@H]7CCCN7C(=O)[C@H](NC(=O)OC)c7ccccc7)n6)cc5)csc34)ccc2[nH]1)C(C)C	11.70

====

Measured solubility, listed per entry.
# Assay method text: Aqueous solubility of compound at pH 7.4
# Type: physicochemical
Experimental readout: solubility (µg/mL)

In [3]: df
Out[3]:
                          smiles_str  unit_of_measure  number
0  Oc1cc(O)cc(/C=C/C23CC(O)(C2)C3)c1            µg/mL     619
1     Oc1ccc(/C=C/c2cc(O)cc(O)c2)cc1            µg/mL      19

====

# Target system: UniProt:Q12809
# Sequence (Q12809 whole entry): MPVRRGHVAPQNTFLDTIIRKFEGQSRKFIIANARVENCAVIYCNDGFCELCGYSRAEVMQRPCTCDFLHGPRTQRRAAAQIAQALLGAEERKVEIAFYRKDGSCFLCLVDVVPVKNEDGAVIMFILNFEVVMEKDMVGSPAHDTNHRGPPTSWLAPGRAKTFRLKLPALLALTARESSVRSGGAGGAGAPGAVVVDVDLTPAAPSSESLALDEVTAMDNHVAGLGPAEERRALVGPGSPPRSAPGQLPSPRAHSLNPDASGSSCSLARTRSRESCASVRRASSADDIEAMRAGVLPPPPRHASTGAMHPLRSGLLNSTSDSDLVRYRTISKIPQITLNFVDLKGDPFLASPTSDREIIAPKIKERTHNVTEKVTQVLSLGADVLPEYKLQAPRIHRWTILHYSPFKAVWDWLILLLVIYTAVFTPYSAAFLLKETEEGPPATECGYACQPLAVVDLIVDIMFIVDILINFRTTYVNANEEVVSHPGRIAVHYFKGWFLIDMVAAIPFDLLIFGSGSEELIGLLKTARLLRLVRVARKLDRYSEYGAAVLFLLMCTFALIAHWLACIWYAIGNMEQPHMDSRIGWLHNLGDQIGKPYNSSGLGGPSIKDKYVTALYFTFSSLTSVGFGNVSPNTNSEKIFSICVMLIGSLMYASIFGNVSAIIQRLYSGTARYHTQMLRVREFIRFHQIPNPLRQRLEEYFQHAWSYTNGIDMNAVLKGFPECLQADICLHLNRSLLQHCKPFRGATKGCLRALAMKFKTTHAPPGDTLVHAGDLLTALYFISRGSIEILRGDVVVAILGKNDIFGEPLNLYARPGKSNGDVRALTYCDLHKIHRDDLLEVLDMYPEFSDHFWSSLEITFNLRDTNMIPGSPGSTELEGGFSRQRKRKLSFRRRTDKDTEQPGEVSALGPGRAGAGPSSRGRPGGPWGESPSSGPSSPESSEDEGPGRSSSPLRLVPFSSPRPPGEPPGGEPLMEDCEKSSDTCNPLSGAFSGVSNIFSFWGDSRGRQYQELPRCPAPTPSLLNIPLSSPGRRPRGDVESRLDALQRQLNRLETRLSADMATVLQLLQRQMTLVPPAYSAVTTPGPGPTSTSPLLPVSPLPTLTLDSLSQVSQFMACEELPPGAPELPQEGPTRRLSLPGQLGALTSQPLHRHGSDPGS
pIC50: −log10 of the molar value.
Experimental readout: pIC50

>>> print(df.to_string())
                                 smiles_str   target_system  result
0  O=C(NCCS(=O)(=O)c1ccc(C(F)(F)F)cn1)c1ccc(-c2ccccc2)cc1  UniProt:Q12809  < 4.52
1  O=C(NCCS(=O)(=O)c1ccc(C(F)(F)F)cn1)c1ccc(B2C=CC=CN2)cc1  UniProt:Q12809  < 4.52

====

# Assay method text: Aqueous solubility of compound
# Format: physicochemical
Experimental readout: solubility (µg/mL)

>>> df
                                 smiles_str  unit_of_measure  number
0  C#CC[C@@H](C(=O)N[C@H](/C=C/C(=O)OCC)C[C@@H]1CCNC1=O)n1cccc(NC(=O)c2cc(C)on2)c1=O            µg/mL     377
1  CCOC(=O)/C=C/[C@H](C[C@@H]1CCNC1=O)NC(=O)[C@H](Cc1ccc(F)c(F)c1)n1cccc(NC(=O)c2cc(C)on2)c1=O            µg/mL      25

====

# Assay method text: physchem
# Condition notes: octanol/PBS, pH 7.6
Experimental readout: logD

In [3]: df
Out[3]:
                                   molecule  experimental_readout  number
0  O=C(CCCCCCC(=O)Nc1ccccc1)NO [VORINOSTAT]                  logD    0.99

====

# Assay method text: in vitro
# Condition notes: rat, liver microsomes
Experimental readout: microsomal CLint (µL/min/mg)

                                 smiles_str  experimental_readout  number
0  Clc1cnc2n1CCCc1nnc(C3CCN(c4ccccn4)CC3)n1-2      microsomal CLint      32

====

# Assay method text: Solubility of the compound
# Assay type: physicochemical

Molecule	solubility
CNCC(=O)OCc1ccccc1N(C)C(=O)OC(C)[n+]1cnn(C[C@](O)(c2cc(F)ccc2F)[C@H](C)c2nc(-c3ccc(C#N)cc3)cs2)c1 (some centres undefined)	1000 µg/mL
CNCC(=O)OCc1cccnc1N(C)C(=O)OC(C)[n+]1cnn(C[C@](O)(c2cc(F)ccc2F)[C@H](C)c2nc(-c3ccc(C#N)cc3)cs2)c1 (some centres undefined)	> 100000 µg/mL
CC(=O)Nc1nc2c(Oc3cc(N4CCN(CC(F)(F)F)CC4)ncn3)cccc2s1	> 200 µg/mL
CC(=O)Nc1nc2c(Oc3cc(N4CCN([C@H](C)c5ccc(F)cc5)CC4)ncn3)cccc2s1	> 200 µg/mL

====

# Target system: UniProt:Q28044
# Sequence (Q28044 whole entry): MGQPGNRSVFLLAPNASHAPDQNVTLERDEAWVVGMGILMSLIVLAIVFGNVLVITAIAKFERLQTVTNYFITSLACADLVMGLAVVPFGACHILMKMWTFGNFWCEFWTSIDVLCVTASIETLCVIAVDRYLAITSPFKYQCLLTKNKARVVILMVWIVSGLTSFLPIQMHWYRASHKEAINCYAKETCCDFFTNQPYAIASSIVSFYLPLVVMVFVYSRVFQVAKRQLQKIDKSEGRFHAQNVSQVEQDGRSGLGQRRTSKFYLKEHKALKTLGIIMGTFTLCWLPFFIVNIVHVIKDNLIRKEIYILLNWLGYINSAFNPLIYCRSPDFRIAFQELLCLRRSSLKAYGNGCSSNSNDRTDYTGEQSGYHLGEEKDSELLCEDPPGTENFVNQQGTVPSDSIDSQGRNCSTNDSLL
pKi: −log10 of the molar value.
Experimental readout: pKi

In [3]: df
Out[3]:
                                   molecule  experimental_readout  number
0  CCO/N=C/C(O)CNC(C)(C)C (stereo unspecified)                   pKi    6.07

====

# Assay method text: Half life in human plasma
# Type: ADME, cell-free
Experimental readout: half-life

>>> print(df.to_string())
                                 smiles_str  result
0  C#CC[C@@H](C(=O)N[C@H](/C=C/C(=O)OCC)C[C@@H]1CCNC1=O)n1cccc(NC(=O)c2cc(C)on2)c1=O   6.6 h

====

# Assay method text: physchem
# Condition notes: buffer, pH 7.4
Measured log10(solubility), listed per entry.
Experimental readout: log10(solubility) (log10 of the value in µg/mL)

In [3]: df
Out[3]:
                                 smiles_str  number
0  COCCn1c(SC)nc(-c2ccc(F)cc2)c1-c1cccc(NC(=O)CCc2ccccc2OC)c1   -1.59
1                           N#Cc1ccc(Br)cc1    2.29
2  COCCn1c(SC)nc(-c2ccc(F)cc2)c1-c1cccc(NC(=O)CCc2ccc(OC)cc2)c1   -1.33
3                    CC(=O)c1ccccc1C(C)(C)C    4.08
4                           N#Cc1cccc(Br)c1    2.80
5  COCCn1c(SC)nc(-c2ccc(F)cc2)c1-c1cccc(NC(=O)CCc2cccc(OC)c2)c1   -0.56
6                             N#Cc1ccccc1Br    2.61
7                  CC(C)(C)c1cccc(C(=O)O)c1    3.91
